Test system: SF-539 CNS
Assay: NCI tumour cell line growth inhibition, 48 h; in the data active = GI50 below about 0.43 µM; inactive = the rest
Output constraint: value belongs to active, inactive

Solved cases (10 shown):
CSC1=Nc2c(c(C)c(-c3ccccc3)n2COC(CO)CO)C2=NC(=O)CC(C)N12 (configuration not stated); inactive
COc1cccc(-c2nc3sccn3c2-c2ccnc(NCCCNS(=O)(=O)c3ccccc3)c2)c1; inactive
CCOC(=O)/C(=C\c1ccc2ccccc2c1)P(=O)(OCC)OCC; inactive
CC[C@H]1OC(=O)[C@H](C)[C@@H](O[C@H]2C[C@@](C)(OC)[C@@H](O)[C@H](C)O2)[C@H](C)[C@@H](O[C@@H]2O[C@H](C)C[C@H](N(C)C)[C@H]2O)[C@](C)(OC)C/C(C)=C2/O[C@@]1(C)C=C2C; inactive
CCCCCC[C@H]1C(=O)O[C@H](C)[C@H](NC(=O)c2cccc(NC=O)c2OC)C(=O)O[C@@H](C)[C@@H]1OC(=O)CCC (tested in a mixture with another compound); inactive
C=C1C[C@@H]2O[C@H]3[C@H]4[C@@H](CC[C@@](C)(OC(=O)CCC)[C@H]42)[C@@H](C)C(=O)O[C@@]3(C)CC[C@H]1OO; inactive
N#[N+]c1ccc(Nc2ccccc2)cc1; inactive
COc1ccc(/C=C/C(=O)c2cc3c(N)c(C(=O)Nc4ccc(OC)cc4)sc3nc2C)cc1; active
COc1ccc(-c2csc(Nc3cccc(-c4csc(C)n4)c3)n2)cc1; inactive
COc1cc(-c2nn(-c3cccc(NC(=O)CCN4CCN(c5ccccc5)CC4)c3)cc2-c2ccncc2)ccc1Cl; inactive

Request: Outcome? `O=[N+]([O-])/C=C/c1ccc(Cl)cc1[N+](=O)[O-]`
Response: inactive

Request: Call for entry `C[C@@H]1CCc2ncc(F)cc2[C@H]2CCCN2c2ccn3ncc(c3n2)C(=O)N1` :
Response: inactive

###

Below, each entry is listed with its recorded TGI.
Tested on: MDA-MB-435
Test: NCI tumour cell line growth inhibition, 48 h

In the examples that follow, each entry is paired with its recorded TGI.
OCC(O)C(O)C(O)C(O)c1nnc2c(-c3ccccc3)nc3ccccc3n12 (stereo unspecified); > 100 µM
Cc1c(-c2ccccc2)[nH]c2cn[nH]c(=O)c12; > 100 µM
O=c1cccc(Cl)[nH]1; > 100 µM
O=C1OC([C@H](O)c2cccnc2)c2ccccc21 (stereo partly specified); > 10 µM

Memo: `Cc1cc(O)c(/C=N/C(=S)Nc2ccc(S(N)(=O)=O)cc2)c(=O)o1` , reported TGI: > 100 µM

The compound `COc1cc(-c2nn(-c3cccc(NC(=O)CCN4CCN(c5ccccc5)CC4)c3)cc2-c2ccncc2)ccc1Cl` showed TGI equal to 13 µM

###

Tested on: SN12C renal
Test: NCI tumour cell line growth inhibition, 48 h
experimental_readout: TGI

// solved cases for TGI follow
O=[N+]1[C@H](c2ccccc2)[C@H](c2ccccc2)N1[O-]; 32.4 µM
CCc1n[nH]c(=O)n1/N=C(\C)c1ccccc1; > 100 µM
CSc1nc(=O)cnn1C; > 100 µM
COc1ccc(Br)c(C(=O)N2CCc3ccccc32)c1N; > 100 µM
C1=CC2CCC1CN2CCC1CNc2ccccc21 (stereo not drawn); > 100 µM

Noted for `COc1ccc(C)cc1NC(=S)C#N` : its TGI reads > 100 µM

Per the record, `O=[N+]([O-])c1cccc2nccc(NCCN3CCOCC3)c12` has TGI of > 48 µM

Measured TGI, `Cc1cc(O)c(/C=N/C(=S)Nc2ccc(S(N)(=O)=O)cc2)c(=O)o1` : > 100 µM

// field: TGI; key: C[C@@H]1CC[C@H]2[C@H](C)C(OC3O[C@@H]4O[C@@]5(C)CC[C@H]6[C@H](C)CC[C@@H]([C@@H]3C)[C@@]46O5)O[C@@H]3O[C@@]4(C)CC[C@@H]1[C@]32O4 (stereo partly drawn) ; value = > 100 µM

The measured TGI associated with `C/C(C=O)=C/[C@@]1(C)O[C@@H](C)[C@@](C)(O)[C@@H]1O` reads > 100 µM
